# Tested on: death induced by pulmonary infarction in mice
# assay_explanation: Antithrombotic activity: inhibition of death by collagen-induced pulmonary infarction in mice
# Assay type: in vivo, male ICR mice
# condition_set: Mus musculus, 1 h; 30 mg/kg oral, 10 minutes before i.v. collagen; lethality in an hour; read-out: Pulmonary infarction inhibitory activity
# Experimental: Pharmacological Experiment 2 Antithrombotic activity […] Male ICR mice (5-week old, body weight; about 25 g) was fasted overnight, and separated into groups (15 mice per each group) and numbered. […] The lethality of the mice was determined by the number of mice which were died in an hour after the administration of collagen solution. […]
Criterion: inhibition in vivo at 30 mg/kg meeting or surpassing 70%. Met: yes (1). Not met: no (0).

{"compound": "CCC(O)CN(C(=O)NCCCOc1ccc2[nH]c(=O)ccc2c1)C1CCCCC1 (stereo not drawn)", "class_name": "yes (1)"}
{"compound": "COc1cc(OCCCNC(=O)N(C2CC2)[C@@H]2CCCC[C@H]2O)cc2ccc(=O)[nH]c12 (relative stereo)", "class_name": "yes (1)"}

# bool: inhibition in vivo at 30 mg/kg of CN(CCCOc1ccc2[nH]c(=O)ccc2c1)C(=O)N(C)C1CCCCC1 >= 70% yes (1)

// same read-out, input: CCC(CN(C(=O)NCCCOc1ccc2[nH]c(=O)ccc2c1)C1CCCCC1)OC(C)=O (stereo not drawn) yes (1)

Continue with CCC(CN(C(=O)NCCCOc1ccc2[nH]c(=O)ccc2c1)C1CCCCC1)OCc1ccccc1 (stereo not drawn) no (0)
